Origin of values: patent US8895585B2

# Tested on: THP-1 cells
# procedure-summary: TNFα generation assay
# Type: cell-based, human
# particulars: Homo sapiens, THP-1, THP-1 cells; Table 22; read-out: IC50 in TNFα generation assay
Measured IC50 by item

The following compounds have reported results that may help.
COc1ccc(-c2cncc(Nc3nc(N[C@@H]4CCCC[C@@H]4N)c(F)cc3C(N)=O)c2)cc1 (relative stereo) ... 65 to 130 nM
CCNc1cc(Nc2nc(NC3CCCCC3N)c(F)cc2C(N)=O)ccn1 (stereo not shown) ... 130 to 200 nM
CCC[C@@H](Nc1nc(Nc2ccnc(-n3nccn3)c2)c(C(N)=O)cc1F)[C@H](C)N ... 65 to 130 nM
CC[C@@H](Nc1nc(Nc2cnc3cc(OC)ccc3c2)c(C(N)=O)cc1F)[C@H](C)N ... < 65 nM
NC(=O)c1cc(F)c(N[C@@H]2CCCC[C@@H]2N)nc1Nc1ccnc2c1ccn2CCN1CCOCC1 ... < 65 nM
CCC[C@@H](Nc1nc(Nc2cnc3ccc(OC)cc3c2)c(C(N)=O)cc1F)[C@H](C)N ... 65 to 130 nM

Now turn to the next compound.
Response field IC50 (THP-1 cells) for item `CC(C)c1nn(C)c2ccc(Nc3nc(N[C@H](C4CC4)[C@H](C)N)c(F)cc3C(N)=O)cc12` : 130 to 200 nM

* * *

Measured pIC50 by item
# assay-system: glutathione S-transferase (GST)-fused full-length human Syk protein (Homo sapiens)
# Construct: (GST)-fused full-length human Syk protein; GST (glutathione S-transferase); purchased Carna Biosciences
# procedure-summary: Syk enzyme assay
# Type: biochemical
# particulars: Syk enzyme assay, Test Example 1; read-out: IC50 of Syk-inhibitory activity
pIC50: −log10 of the molar value.

The following compounds have reported results that may help.
CNc1nc(Nc2cc(OC)cc(OC)c2)c(C(N)=O)cc1F [Example 022-008] ... 6.00 to 7.00
CCOc1ccccc1-c1cncc(Nc2nc(N[C@@H]3CCCC[C@@H]3N)c(F)cc2C(N)=O)c1 (relative stereo) [Example 004-182] ... > 8.00

compound NC(=O)c1cc(F)c(N[C@@H]2CCCC[C@@H]2N)nc1Nc1cnc2cccnc2c1 [Example 004-002] , pIC50 observed: 7.30 to 8.00

compound COCCn1ncc2cc(Nc3nc(N[C@@H]4CCCC[C@@H]4N)c(F)cc3C(N)=O)ccc21 [Example 004-172] , pIC50 observed: > 8.00

* * *

Measured pIC50 by item
# assay-system: glutathione S-transferase (GST)-fused full-length human Syk protein (Homo sapiens)
# Construct: (GST)-fused full-length human Syk protein; GST (glutathione S-transferase); purchased Carna Biosciences
# procedure-summary: Syk enzyme assay
# Format: biochemical
# particulars: Syk enzyme assay, Test Example 1; read-out: IC50 of Syk-inhibitory activity
pIC50: −log10 of the molar value.

The following compounds have reported results that may help.
C[C@H](Nc1nc(Nc2ccc3ncccc3c2)c(C(N)=O)cc1F)[C@@H](C)N [Example 006-225] ... 7.30 to 8.00
Cc1cc(Nc2nc(NC3CCCCC3N)c(F)cc2C(N)=O)cc(C)n1 (centres unmarked) [Example 002-022] ... 7.30 to 8.00
CCC[C@@H](Nc1nc(Nc2ccc3nc(C)cnc3c2)c(C(N)=O)cc1F)[C@H](C)N [Example 006-245] ... > 8.00
NC(=O)c1cc(F)c(NC2CCCCC2N)nc1Nc1cccc(Cl)c1 (centres unmarked) [Example 008-008] ... > 8.00
CCC[C@H](CN)Nc1nc(Nc2ccc3ncccc3c2)c(C(N)=O)cc1F [Example 006-161] ... > 8.00

compound COc1ccccc1-c1cncc(Nc2nc(N[C@@H]3CCCC[C@@H]3N)c(F)cc2C(N)=O)c1 (relative stereo) [Example 004-149] , pIC50 observed: > 8.00

compound C[C@H](N)[C@@H](CC1CC1)Nc1nc(Nc2cccc3c2c(F)nn3CC(F)F)c(C(N)=O)cc1F [Example 006-492] , pIC50 observed: 7.30 to 8.00

compound NC(=O)c1cc(F)c(N[C@@H]2CCCC[C@@H]2N)nc1Nc1cncc2c1ccn2CCN1CCCC1 [Example 004-007] , pIC50 observed: > 8.00
